Target: TRβ-SRC2-2 interaction (hTRβ LBD, SRC2-2 Texas Red peptide) (Homo sapiens, UniProt P10828)
Test: TRβ-SRC2-2 fluorescence polarization qHTS
Type: binding
Settings: six concentrations up to 92 μM; FP inhibition
PROPERTY: activity in the qHTS (active/inactive)

{"COMPOUND": "CS(=O)(=O)c1ccc(C(=O)OCC(=O)NC2CCS(=O)(=O)C2)cc1[N+](=O)[O-] (centres unmarked)", "SYSTEM": "TRβ-SRC2-2 interaction (hTRβ LBD, SRC2-2 Texas Red peptide) (Homo sapiens, UniProt P10828)", "PROPERTY": "activity in the qHTS (active/inactive)", "EXPERIMENTAL RESULT": "inactive"}
{"COMPOUND": "CS(=O)(=O)c1ccc(C(=O)OCC(=O)NC23CC4CC(CC(C4)C2)C3)cc1[N+](=O)[O-]", "SYSTEM": "TRβ-SRC2-2 interaction (hTRβ LBD, SRC2-2 Texas Red peptide) (Homo sapiens, UniProt P10828)", "PROPERTY": "activity in the qHTS (active/inactive)", "EXPERIMENTAL RESULT": "active"}
{"COMPOUND": "CS(=O)(=O)c1ccc(C(=O)OCc2nnc(-c3ccccc3)o2)cc1[N+](=O)[O-]", "SYSTEM": "TRβ-SRC2-2 interaction (hTRβ LBD, SRC2-2 Texas Red peptide) (Homo sapiens, UniProt P10828)", "PROPERTY": "activity in the qHTS (active/inactive)", "EXPERIMENTAL RESULT": "inactive"}
{"COMPOUND": "CS(=O)(=O)c1ccc(C(=O)OCc2nnc(-c3ccc(Cl)cc3)o2)cc1[N+](=O)[O-]", "SYSTEM": "TRβ-SRC2-2 interaction (hTRβ LBD, SRC2-2 Texas Red peptide) (Homo sapiens, UniProt P10828)", "PROPERTY": "activity in the qHTS (active/inactive)", "EXPERIMENTAL RESULT": "inactive"}
{"COMPOUND": "O=C(COC(=O)c1ccncc1)NC(=O)C1CCCCC1", "SYSTEM": "TRβ-SRC2-2 interaction (hTRβ LBD, SRC2-2 Texas Red peptide) (Homo sapiens, UniProt P10828)", "PROPERTY": "activity in the qHTS (active/inactive)", "EXPERIMENTAL RESULT": "loss of the activity"}
{"COMPOUND": "CS(=O)(=O)c1ccc(C(=O)OCC(=O)NC(=O)C2CCCCC2)cc1[N+](=O)[O-]", "SYSTEM": "TRβ-SRC2-2 interaction (hTRβ LBD, SRC2-2 Texas Red peptide) (Homo sapiens, UniProt P10828)", "PROPERTY": "activity in the qHTS (active/inactive)", "EXPERIMENTAL RESULT": "active"}
{"COMPOUND": "CC(CCc1ccccc1)NC(=O)COC(=O)c1ccc(S(C)(=O)=O)c([N+](=O)[O-])c1 (centres unmarked)", "SYSTEM": "TRβ-SRC2-2 interaction (hTRβ LBD, SRC2-2 Texas Red peptide) (Homo sapiens, UniProt P10828)", "PROPERTY": "activity in the qHTS (active/inactive)", "EXPERIMENTAL RESULT": "active"}
{"COMPOUND": "CC(=O)c1cccc(NC(=O)COC(=O)c2ccc(S(C)(=O)=O)c([N+](=O)[O-])c2)c1", "SYSTEM": "TRβ-SRC2-2 interaction (hTRβ LBD, SRC2-2 Texas Red peptide) (Homo sapiens, UniProt P10828)", "PROPERTY": "activity in the qHTS (active/inactive)", "EXPERIMENTAL RESULT": "inactive"}
{"COMPOUND": "Cc1ccccc1NC(=O)COC(=O)c1ccc(S(C)(=O)=O)c([N+](=O)[O-])c1", "SYSTEM": "TRβ-SRC2-2 interaction (hTRβ LBD, SRC2-2 Texas Red peptide) (Homo sapiens, UniProt P10828)", "PROPERTY": "activity in the qHTS (active/inactive)", "EXPERIMENTAL RESULT": "inactive"}
{"COMPOUND": "COc1cc(C(=O)OCC(=O)NC(=O)C2CCCCC2)ccc1OC(F)F", "SYSTEM": "TRβ-SRC2-2 interaction (hTRβ LBD, SRC2-2 Texas Red peptide) (Homo sapiens, UniProt P10828)", "PROPERTY": "activity in the qHTS (active/inactive)", "EXPERIMENTAL RESULT": "loss of the activity"}
{"COMPOUND": "O=C(COC(=O)c1ccc(Cl)cc1O)NC(=O)C1CCCCC1", "SYSTEM": "TRβ-SRC2-2 interaction (hTRβ LBD, SRC2-2 Texas Red peptide) (Homo sapiens, UniProt P10828)", "PROPERTY": "activity in the qHTS (active/inactive)", "EXPERIMENTAL RESULT": "loss of the activity"}

---

Target: TRβ-SRC2-2 interaction (hTRβ LBD, SRC2-2 fluorescein peptide) (Homo sapiens, UniProt P10828)
Conditions: confirmation, independent samples, fluorescein fluoroprobe

{"COMPOUND": "CN1CC[C@@]2(C)c3cc(O)ccc3N(C)[C@H]2O1 [geneseroline]", "IC50": "> 30 µM"}

---

Molecular target: TRβ-SRC2-2 interaction (hTRβ LBD, SRC2-2 Texas Red peptide) (Homo sapiens)
Sequence (P10828 209-461): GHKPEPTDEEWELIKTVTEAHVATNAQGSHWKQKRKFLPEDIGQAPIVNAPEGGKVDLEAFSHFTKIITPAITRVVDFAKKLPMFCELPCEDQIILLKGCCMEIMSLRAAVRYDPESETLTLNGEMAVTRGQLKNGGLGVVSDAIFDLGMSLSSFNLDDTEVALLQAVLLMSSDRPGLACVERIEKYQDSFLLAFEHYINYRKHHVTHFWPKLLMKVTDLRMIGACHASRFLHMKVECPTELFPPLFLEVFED
Details: confirmation, independent samples, Texas Red fluoroprobe

{"GIVEN SMILES": "CN1CC[C@@]2(C)c3cc(O)ccc3N(C)[C@H]2O1", "IC50": "> 30 µM"}
